Tested on: A549
procedure.details: Cytotoxicity against human A549 cells after 48 hrs by SRB assay
Format: functional, cell-based
protocol.conditions: A549, 48 h
Entries and their measured IC50 follow.
Lab book: enter the figure in µM, no units written.

C=C(CC[C@@H](C)[C@H]1CC=C2C3=C(C(=O)C[C@@]21C)[C@@]1(C)CCC(=O)[C@@H](C)[C@@H]1C[C@@H]3O)C(C)C(=O)O (stereo partly drawn): 40.6
C=C(CC[C@@H](C)[C@H]1CC[C@H]2C3=C(C(=O)C[C@]12C)[C@@]1(C)CCC(=O)[C@@H](C)[C@@H]1CC3=O)[C@@H](C)C(=O)O: 41.4

query: So what does the record say about IC50 for `C=C(CC[C@@H](C)[C@H]1CC[C@H]2C3=C(C(=O)C[C@]12C)[C@@]1(C)CCC(=O)[C@](C)(O)[C@@H]1C[C@@H]3O)[C@H](C)C(=O)OC` ?
result: 73.2
